Hi there, I'd appreciate the recorded solubility in PBS pH 6.8 for every entry that follows.
Experiment: Solubility studies, shake-flask method with HPLC quantification of HAL
Type: physicochemical
Conditions: buffer PBS (0.2 M) pH 6.8, 24 h stirring at 25 °C, HAL concentration by HPLC at 248 nm
Answers are plain numbers, in mg/mL.

Worked set:
Dear colleague, I am looking for the recorded solubility in PBS pH 6.8 of the following molecule: O=C(CCCN1CCC(O)(c2ccc(Cl)cc2)CC1)c1ccc(F)cc1.O=C(CCCN1CCC(O)(c2ccc(Cl)cc2)CC1)c1ccc(F)cc1.O=C(O)c1ccc(C(=O)O)cc1.O=C(O)c1ccc(C(=O)O)cc1
0.051

Quick one: O=C(CCCN1CCC(O)(c2ccc(Cl)cc2)CC1)c1ccc(F)cc1.O=C(O)CCCCCC(=O)O
0.072

What about O=C(CCCN1CCC(O)(c2ccc(Cl)cc2)CC1)c1ccc(F)cc1.O=C(CCCN1CCC(O)(c2ccc(Cl)cc2)CC1)c1ccc(F)cc1.O=C(O)CCCCCCC(=O)O.O=C(O)CCCCCCC(=O)O [(HAL^+)2·(SU^2–)·(SU)] ?
0.017

Next:
I have this molecule here, O=C(CCCN1CCC(O)(c2ccc(Cl)cc2)CC1)c1ccc(F)cc1.O=C(O)CCCC(=O)O , and I need its recorded solubility in PBS pH 6.8.
0.048
